Reference source for all entries: the supplement of paper PMC10567573

B1: SMTNL2 (parent)
chain: ETAAGKGKGEARARLKRSQSFGVA

Variants of: B1
procedure summary: protein stability index of a GFP-peptide fusion (GPS, HEK-293T) (PSI 1-6); higher = more stable;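 also: lentivirally expressed fusions sorted by FACS into six bins by GFP to DsRed ratio, PSI derived from sequencing read proportions per bin multiplied by bin number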
cond: c terminus: a fixed tail appended
Where protein stability index equals or exceeds 4, the correct label is 1 (yes); where it does not, the label is 0 (no).

Assess whether reported protein stability index for "ITAAGKGKGEARARLKRSQSFGVA" sits at 4 or higher.
0 (no)

Assess whether reported protein stability index for "ETAAGKGKSEARARLKRSQSFGVA" sits at 4 or higher.
1 (yes)

Assess whether reported protein stability index for "ETAAGKGKGEARDRLKRSQSFGVA" sits at 4 or higher.
1 (yes)

Assess whether reported protein stability index for "ETAAGTGKGEARARLKRSQSFGVA" sits at 4 or higher.
1 (yes)

Assess whether reported protein stability index for "ETAAGKGKGEARARNKRSQSFGVA" sits at 4 or higher.
1 (yes)

Assess whether reported protein stability index for "ETAAGKGKGEARARLKRSQWFGVA" sits at 4 or higher.
0 (no)

Assess whether reported protein stability index for "EGAAGKGKGEARARLKRSQSFGVA" sits at 4 or higher.
1 (yes)

Assess whether reported protein stability index for "ETAAGKGKKEARARLKRSQSFGVA" sits at 4 or higher.
1 (yes)

Assess whether reported protein stability index for "ETAAGKGKGEARARPKRSQSFGVA" sits at 4 or higher.
1 (yes)

Assess whether reported protein stability index for "ETAAGKGWGEARARLKRSQSFGVA" sits at 4 or higher.
0 (no)

Assess whether reported protein stability index for "ETAAGKGKGETRARLKRSQSFGVA" sits at 4 or higher.
1 (yes)

Assess whether reported protein stability index for "ETAAGKGKGEACARLKRSQSFGVA" sits at 4 or higher.
1 (yes)

Assess whether reported protein stability index for "ETAAPKGKGEARARLKRSQSFGVA" sits at 4 or higher.
1 (yes)

Assess whether reported protein stability index for "ETAAGKGKGEARARLKRSQSFAVA" sits at 4 or higher.
1 (yes)

Assess whether reported protein stability index for "ETAACKGKGEARARLKRSQSFGVA" sits at 4 or higher.
1 (yes)

Assess whether reported protein stability index for "ETAAGKGKGEARARLSRSQSFGVA" sits at 4 or higher.
1 (yes)

Assess whether reported protein stability index for "ETAAGKGKGEARANLKRSQSFGVA" sits at 4 or higher.
1 (yes)

Assess whether reported protein stability index for "ETGAGKGKGEARARLKRSQSFGVA" sits at 4 or higher.
1 (yes)

Assess whether reported protein stability index for "KTAAGKGKGEARARLKRSQSFGVA" sits at 4 or higher.
0 (no)
